Entries annotated with measured growth rescue
assay: rescue of yeast from PfHsp40 toxicity, primary screen, S. cerevisiae, ATP luminescence (AID 504582);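 also: yeast W303a lacking pdr1 and pdr3 grown in galactose medium; growth measured after three days at 30 °C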
condition-notes: S. cerevisiae expressing PfHsp40, growth rescue, at 12.5 µM, hits give high values
Screen size: about 340,000 compounds; about 2,300 (0.68%) were called active. Many of the other results were omitted from the sample, so actives are more common in it than they were.
measured-quantity: growth rescue (%)

compound=Cc1ccccc1Nc1nnc(SCC(=O)c2cc3ccccc3o2)s1 measured_quantity="growth rescue" meas_value=0.609
compound=CC(C)c1ccc(Nc2nnc(SCC(=O)c3nnc(-c4ccccc4)o3)s2)cc1 measured_quantity="growth rescue" meas_value=200
compound=Nc1cc(N)nc(SCc2ccc(Cl)cc2)n1 measured_quantity="growth rescue" meas_value=0.722
compound=Cc1ccccc1Nc1c([N+](=O)[O-])ccc2nonc12 measured_quantity="growth rescue" meas_value=-0.179
compound="C=CCN1CC(C)/C(=N\\O)CC1C (stereo not drawn)" measured_quantity="growth rescue" meas_value=-0.962
compound=CCOC(=O)Nc1ccc2c(c1)N(C(=O)CCCl)c1ccccc1[S@]2=O measured_quantity="growth rescue" meas_value=1.15
compound="CC1(C)C2CCC1(C)C(OC(=O)c1ccc(O)cc1)C2 (stereo not drawn)" measured_quantity="growth rescue" meas_value=518
compound=COc1cccc(NC(=S)N(Cc2ccc(C)cc2)Cc2ccccn2)c1 measured_quantity="growth rescue" meas_value=1.55
compound=CSCc1cc(N(C)C)nc(SCc2ccc(Cl)cc2Cl)n1 measured_quantity="growth rescue" meas_value=119
compound="COc1ccc(OC(C)C(=O)Nc2cccnc2)cc1 (stereo not drawn)" measured_quantity="growth rescue" meas_value=-0.665
compound=CCOc1ccc(NS(=O)(=O)c2ccc(C)c(C(N)=O)c2)cc1 measured_quantity="growth rescue" meas_value=-1.27
compound=Cc1ccc2c(c1)N(C(=O)CCC(=O)NCc1cccnc1)CCO2 measured_quantity="growth rescue" meas_value=-1.04
compound=CSCc1cc(N2CCOCC2)nc(SCc2ccc(Cl)cc2Cl)n1 measured_quantity="growth rescue" meas_value=21.9
compound=CN1CCN(C(=O)N2c3ccccc3CCc3ccccc32)CC1 measured_quantity="growth rescue" meas_value=-1.45
compound=Cc1ccc(NC(=O)CN(C)C(=O)COC(=O)C(C)(C)Oc2ccc(Cl)cc2)cc1 measured_quantity="growth rescue" meas_value=-0.952
compound=NS(=O)(=O)c1ccc(CCNC(=O)c2ccc(Cl)c(S(=O)(=O)N3CCCCCC3)c2)cc1 measured_quantity="growth rescue" meas_value=0.571
compound="Cc1ccc(C(=O)OC2CCCN(C)C2)cc1 (stereo not drawn)" measured_quantity="growth rescue" meas_value=-1.37
compound="Cc1cc(C)n(CC(O)COc2ccc(C(C)(C)C)cc2)n1 (stereo not drawn)" measured_quantity="growth rescue" meas_value=0.193
compound=COc1ccc(NS(=O)(=O)c2ccc(NC(=S)NC(=O)/C=C/c3ccc(C)cc3)cc2)nn1 measured_quantity="growth rescue" meas_value=-1.55
compound="COc1ccc(CS(=O)/C(Cl)=C(/Cl)C(=O)Nc2ccc(OC)nc2)cc1 (stereo not drawn)" measured_quantity="growth rescue" meas_value=81.6
compound=S=c1[nH]nc(-c2ccco2)n1/N=C/c1ccc(Br)s1 measured_quantity="growth rescue" meas_value=152
compound=Cc1ccccc1-c1n[nH]c(=S)n1/N=C/c1ccc(-c2ccccc2Br)o1 measured_quantity="growth rescue" meas_value=0.454
compound=Cc1cccc(N2CCN(C(=O)CN(C)S(=O)(=O)c3ccc4c(c3)CCC(=O)N4)CC2)c1C measured_quantity="growth rescue" meas_value=-1.62
